Reference for the values: patent US20240270828A1

molecular target: SARS-CoV-2 S1+S2 (40589-V08B1, Sino Biological) (SARS-CoV-2, UniProt P0DTC2 16-1213); experiment: ELISA on coated protein, anti-human IgG-HRP; AUC of the OD
Please provide measured Binding AUC for the entries that follow.
Answers are plain numbers.

Some binders with known Binding AUC results, for comparison:
>>> assay_value("1250E10 (antibody, V domains shown, Recombinant human IgG1) VH: EVQLVQSGAEVKKPGASVKFSCKASGFRVDGSYMHWVRQAPRGGLEWMGLINPSGSGTAYAQIFQGRVTLTRDTSTSTLYMELGSLGSEDTAMYYCARMDRSGSYDLWGQGTLVIVSS VL: DIVLTQSPGNLSLSPGERATLSCRASESIRSAYIAWYQQKPGQAPRLLMRGASVRAAGIPDRFSGSGSGTDYALTISRLEPEDFAVYYCQHFASSPPRYTFGQGTKLEIK")
26
>>> assay_value("1249A8 (antibody, V domains shown) VH: QVQLVQSGAEVKKPGASMKVSCKASGFTFTDYYMHWVRQAPRQGLEWMGLINPSGSGTAYAQNFQGRVTLARDTSTSTLYMEMGSLTSDDTAVYYCARMDSSGSYDHWGQGTLVTVSS VL: ETTLTQSPGTLSLSPGDRATLSCRASQTIRISYLAWYQQKPGQAPRLLVYGPSIRATGIPDRFSARGSGTDFTLTISRLEPEDFAVYYCQHYGSSPPRYTFGQGTKLEIK")
24.8

# evaluate next
The recorded Binding AUC for 1250D2 (antibody, V domains shown, Recombinant human IgG1) VH: QVQLVQSGAEVKKPGASMKVSCKASGFTFSDYYMHWVRQAPRQGLEWMGLINPSGSGTAYAQNFQGRVTLTRDTSTSTLYMEMGSLTSDDTAVYYCARMDSSGSYDHWGQGTLVTVSS VL: EIVLTQSPGTLSLSPGDRATLSCRASQTIRISYLAWYQQKPGQAPRLLVYGPSIRATGIPDRFSASGSGTDFTLTISRLEPEDFAVYYCQHYGSSPPRYTFGQGTKLEIK is 25.3
